Examples of compounds with documented fraction unbound at 8 μg/ml follow.
- target system: bovine serum albumin (Bos taurus, UniProt P02769)
- Construct: from tissue; host or cells: plasma / serum (from the name; preparation not described)
- Sequence (P02769 25-607): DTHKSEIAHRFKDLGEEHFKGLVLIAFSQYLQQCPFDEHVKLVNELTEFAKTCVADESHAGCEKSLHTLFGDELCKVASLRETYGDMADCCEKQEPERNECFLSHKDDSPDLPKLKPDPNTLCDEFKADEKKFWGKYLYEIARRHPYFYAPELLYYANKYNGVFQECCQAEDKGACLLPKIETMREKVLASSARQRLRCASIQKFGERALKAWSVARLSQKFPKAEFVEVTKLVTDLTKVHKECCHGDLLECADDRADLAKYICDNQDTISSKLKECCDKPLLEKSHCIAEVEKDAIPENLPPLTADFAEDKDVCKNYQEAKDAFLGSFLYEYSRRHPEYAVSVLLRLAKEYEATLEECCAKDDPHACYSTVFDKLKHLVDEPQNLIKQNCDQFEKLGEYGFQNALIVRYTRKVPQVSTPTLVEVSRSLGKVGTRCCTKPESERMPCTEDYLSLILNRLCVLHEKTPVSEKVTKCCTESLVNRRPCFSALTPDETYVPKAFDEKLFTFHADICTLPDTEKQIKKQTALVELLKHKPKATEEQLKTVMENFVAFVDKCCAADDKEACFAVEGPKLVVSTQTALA
- measurement description: Compound binding to plasma albumin (ultrafiltration, free compound), BSA
- Format: in vitro ADME
- condition description: bovine, bovine serum albumin solution (40 mg/ml); compound 8 μg/ml; BSA 40 mg/ml; pH 7.4, 37° C.

{"compound": "Oc1cnccc1-c1ncc[nH]1", "fraction unbound at 8 μg/ml": 0.53}
{"compound": "Oc1cnccc1-c1ccccn1 [BST4944, [2,4′]Bipyridinyl-3′-ol]", "fraction unbound at 8 μg/ml": 0.34}

----------
- target system: rat albumin (Rattus norvegicus)
- Construct: from tissue; host or cells: plasma (from 'plasma albumin'; preparation not described)
- Sequence (P02770 25-608): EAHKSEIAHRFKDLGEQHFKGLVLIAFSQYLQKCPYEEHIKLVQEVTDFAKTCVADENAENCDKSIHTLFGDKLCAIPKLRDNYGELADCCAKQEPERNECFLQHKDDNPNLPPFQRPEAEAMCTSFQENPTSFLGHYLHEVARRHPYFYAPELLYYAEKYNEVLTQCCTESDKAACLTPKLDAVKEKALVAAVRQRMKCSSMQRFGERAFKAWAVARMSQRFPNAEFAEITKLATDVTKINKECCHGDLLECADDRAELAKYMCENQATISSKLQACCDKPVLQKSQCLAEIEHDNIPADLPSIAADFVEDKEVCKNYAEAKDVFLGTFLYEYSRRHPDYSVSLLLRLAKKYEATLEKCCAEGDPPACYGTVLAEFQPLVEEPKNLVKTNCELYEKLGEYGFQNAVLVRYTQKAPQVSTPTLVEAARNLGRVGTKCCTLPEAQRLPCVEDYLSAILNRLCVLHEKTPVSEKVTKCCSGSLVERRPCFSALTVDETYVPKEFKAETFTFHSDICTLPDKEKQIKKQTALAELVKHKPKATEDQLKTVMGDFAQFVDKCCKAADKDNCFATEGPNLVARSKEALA
- measurement description: Compound binding to plasma albumin (ultrafiltration, free compound), rat albumin
- Format: in vitro ADME
- condition description: rat albumin solution (~13 mg/ml); compound 10 μg/ml; rat albumin ~13 mg/ml; pH 7.4, 37° C.; read-out: % Free BST4997
recorded endpoint: fraction unbound at 10 μg/ml

{"compound structure string": "Cc1ncc(CO)c(-c2ncc[nH]2)c1O", "recorded endpoint": "fraction unbound at 10 μg/ml", "reported value": 0.67}

----------
- target system: bovine serum albumin (Bos taurus, UniProt P02769)
- Construct: from tissue; host or cells: plasma / serum (from the name; preparation not described)
- measurement description: Compound binding to plasma albumin (ultrafiltration, free compound), BSA
- Type: in vitro ADME
- condition description: compound 10 μg/ml; BSA 40 mg/ml; read-out: Computed (1:1) Kd
recorded endpoint: Kd (µM)

{"compound structure string": "Cc1ncc(CO)c(-c2ncc[nH]2)c1O", "target system": "bovine serum albumin (Bos taurus, UniProt P02769)", "reported value": 240}

----------
- target system: rat albumin (Rattus norvegicus)
- Construct: preparation not described)
- measurement description: Compound binding to plasma albumin (ultrafiltration, free compound), rat albumin
- condition description: compound 10 μg/ml; rat albumin ~13 mg/ml; read-out: Computed (1:1) Kd

{"compound structure string": "Cc1ncc(CO)c(-c2ncc[nH]2)c1O", "u": "µM", "Kd": 350}

----------
- Tested on: conversion of Amadori compounds to post Amadori advanced glycation endproducts (bovine serum albumin and ribonuclease A glycated by ribose)
- measurement description: Interrupted glycation: inhibition of post-Amadori AGE formation
- Format: biochemical
- condition description: interrupted glycation with ribose, 37° C., pH 7.5; read-out: IC50 for inhibiting the conversion of Amadori compounds to post Amadori advanced glycation endproducts
pIC50: −log10 of the molar value.
recorded endpoint: pIC50

{"molecule": "Cc1ncc(CO)c(-c2ncc[nH]2)c1O", "reported value": "3.52 to 3.70"}
{"molecule": "Cc1ncc(CO)c(CN)c1O [pyridoxamine, reference compound]", "reported value": "~2.52"}
{"molecule": "Oc1cnccc1-c1ccccn1 [BST4944, [2,4′]Bipyridinyl-3′-ol]", "reported value": 2.70}
{"molecule": "Oc1cnccc1-c1ncc[nH]1", "reported value": "3.52 to 3.70"}

----------
- target system: bovine serum albumin (Bos taurus)
- Construct: from tissue; host or cells: plasma / serum (from the name; preparation not described)
- measurement description: Compound binding to plasma albumin (ultrafiltration, free compound), BSA
- Type: in vitro ADME
- condition description: bovine, bovine serum albumin solution (40 mg/ml); compound 10 μg/ml; BSA 40 mg/ml; pH 7.4, 37° C.; read-out: % Free BST4997

{"compound structure string": "Cc1ncc(CO)c(-c2ncc[nH]2)c1O", "fraction unbound at 10 μg/ml": 0.3}

Data origin: patent US20040122061A1
